pIC50: −log10 of the molar value.
Target or system Cholinesterase (Equus caballus): recorded pIC50 listed per item.

- Compound: "COc1ccc(NC(=O)C(CC(=O)c2ccc(C(C)C)cc2C(C)C)N2CCCCC2)cc1OC (racemic)"
  Test system: "Cholinesterase (Equus caballus)"
  pIC50: "< 5.12"

Provide pIC50 values for the following items, in order.
1. COc1cc(NC(=O)C(CC(=O)c2ccc(C(C)C)cc2)N2CCOCC2)cc(OC)c1 (racemic)
2. CC(C)c1ccc(C(=O)CC(C(=O)Nc2ccccc2)N2CCC(Cc3ccccc3)CC2)cc1 (racemic)
3. CC(C)c1ccc(NC(=O)C(CC(=O)c2ccc(C(C)C)cc2C(C)C)N2CCN(C)CC2)cc1 (racemic)
4. CC(C)c1ccc(NC(=O)C(CC(=O)c2ccc(C(C)C)cc2)n2ccnc2)cc1 (racemic)
5. COc1cc(NC(=O)C(CC(=O)c2ccc(C(C)C)cc2)N2CCN(C)CC2)cc(OC)c1 (racemic)
6. CC(C)c1ccc(NC(=O)C(CC(=O)c2ccc(C(C)C)cc2C(C)C)n2ccnc2)cc1 (racemic)
7. O=C(CC(C(=O)NC1CCCCC1)N1CCCCC1)c1cccc2c1CCCC2 (racemic)

1. < 4.70
2. < 4.70
3. 6.13
4. < 4.70
5. < 4.70
6. < 4.70
7. < 4.70

Working through the 7 compounds below one at a time, give pIC50 for each.
1. O=C(CC(C(=O)NC1CCCCC1)n1ccnc1)c1cccc2c1CCCC2 (racemic)
2. COc1ccc(NC(=O)C(CC(=O)c2ccc(C(C)C)cc2C(C)C)N2CCN(C)CC2)cc1OC (racemic)
3. CC(C)c1ccc(C(=O)CC(C(=O)NC2CCCCC2)N2CCN(C)CC2)c(C(C)C)c1 (racemic)
4. CC(C)c1ccc(NC(=O)C(CC(=O)c2ccc(C(C)C)cc2)N2CCOCC2)cc1 (racemic)
5. CC(C)c1ccc(NC(=O)C(CC(=O)c2cccc3c2CCCC3)N2CCN(C)CC2)cc1 (racemic)
6. COc1cc(NC(=O)C(CC(=O)c2ccc(C(C)C)cc2)N2CCN(CCN(C)C)CC2)cc(OC)c1 (racemic)
7. CC(C)c1ccc(NC(=O)C(CC(=O)c2cccc3c2CCCC3)N2CCOCC2)cc1 (racemic)

< 4.70
5.28
5.65
< 4.70
4.97
< 4.70
< 4.82
